# test: Cell viability assay (crystal violet)
# recorded conditions: African green monkey
property label: viability at 48 h, 10 µM

Consider the worked cases shown below.
CCN(CC)c1cc2c(nc1Cc1ccccc1)C(c1ccc(C(F)(F)F)cc1)N(CCNc1ccnc3cc(Cl)ccc13)C2=O (stereo not shown) [19i]: > 90%
O=C1c2cc(N3CCOCC3)c(Cc3ccccc3)nc2C(c2ccc(C(F)(F)F)cc2)N1CCNc1ccnc2cc(Cl)ccc12 (stereo not shown) [19g]: > 80%
O=C1c2cc(N3CCOCC3)c(Cc3ccccc3)nc2C(c2ccccc2F)N1CCCNc1ccnc2cc(Cl)ccc12 (stereo not shown) [19f]: > 80%

# context switch: different molecule, same viability at 48 h, 10 µM
Req: State, in one line, measured viability at 48 h, 10 µM of CCN(CC)c1cc2c(nc1Cc1ccccc1)C(c1ccc(F)cc1)N(CCNc1ccnc3cc(Cl)ccc13)C2=O (stereo not shown) [19d]
Resp: > 90%
